# System: EKVX NSCLC
# Assay summary: NCI tumour cell line growth inhibition, 48 h
Measurement kind: TGI

Observe how each entry below is paired with its result.
- Compound: "CS(=O)(=O)c1nc(-c2cc3c(c(S(C)(=O)=O)n2)CCCC3)cc2c1CCCCC2"
  Experimental value: "> 100 µM"
- Compound: "COc1ccc2nc(-c3ccccc3)cc(OCC(=O)O)c2c1"
  Experimental value: "> 100 µM"
- Compound: "O=C(O)CCS/C(=C\\C(SCCC(=O)O)c1ccc(Cl)cc1)c1ccc(Cl)cc1 (configuration not stated)"
  Experimental value: "> 100 µM"
- Compound: "C=C1C(=O)OC2C/C(C)=C/CC/C(C)=C/CCC3(COC(C)=O)OC3CC12 (configuration not stated)"
  Experimental value: "38.6 µM"
- Compound: "NC(=S)/N=C(/c1nc2ccc(Cl)cc2[nH]c1=O)C(O)c1ccccc1Cl (configuration not stated)"
  Experimental value: "> 100 µM"
- Compound: "O=C(/C=C/c1ccccc1)CSc1ncn[nH]1"
  Experimental value: "> 100 µM"
- Compound: "O=C(NOC[C@H](O)CO)c1ccc(F)c(F)c1Nc1ccc(I)cc1F"
  Experimental value: "> 100 µM"
- Compound: "Cn1c(C(=O)c2ccncc2)cc2ccccc21"
  Experimental value: "> 100 µM"
- Compound: "COc1ccc(-n2c(N)c(C#N)[nH]c2=O)cc1"
  Experimental value: "> 10 µM"
- Compound: "Cc1nc(N)nc2c1CCC(O)S2 (configuration not stated)"
  Experimental value: "93.2 µM"

## Input Given the compound `Clc1ccc(C2=NN=C3C(c4ccccc4)=Nc4ccccc4N3C2)cc1` , write its reported TGI.
## Output > 27.1 µM

## Input Given the compound `NC(N)=NC(N)=Nc1ccc(S(=O)(=O)O)cc1` , write its reported TGI.
## Output > 100 µM

## Input Given the compound Clc1ccc(C(c2ccccc2Cl)C(Cl)Cl)cc1 (configuration not stated) , write its reported TGI.
## Output 32.6 µM

## Input Given the compound `N#Cc1ccccc1C(Cl)(Cl)c1cnccn1` , write its reported TGI.
## Output > 100 µM

## Input Given the compound `c1cc2c(s1)-c1sccc1C21OCCO1` , write its reported TGI.
## Output > 100 µM

---

# Tested on: SF-539 CNS
# Assay summary: NCI tumour cell line growth inhibition, 48 h
Measurement kind: TGI (µM)
Hi! Could you send only the number? It should be in µM, unit omitted.

Observe how each entry below is paired with its result.
- Molecule: "COc1c(/C=C/C(C)(C)O)cc(C2CC(=O)c3c(O)cc(O)cc3O2)cc1CC=C(C)C (configuration not stated)"
  System name: "SF-539 CNS"
  Unit text: "µM"
  TGI: 17.4
- Molecule: "O=C(/C=C/C12c3ccccc3C(c3ccccc31)C1C(=O)NC(=O)C12)c1ccc(Cl)cc1Cl (configuration not stated)"
  System name: "SF-539 CNS"
  Unit text: "µM"
  TGI: 2.96
- Molecule: "COc1ccc2c(=O)cc(-c3ccccc3)[nH]c2c1"
  System name: "SF-539 CNS"
  Unit text: "µM"
  TGI: 3.37
- Molecule: "CCC[CH2][Sn]([Cl])([Cl])[CH2]CCC"
  System name: "SF-539 CNS"
  Unit text: "µM"
  TGI: 2.19

## Input Given the molecule `O=S(=O)(Nc1nc2ccccc2nc1Nc1ccc2ccccc2c1)c1ccccc1` , write its reported TGI.
## Output 45.8

## Input Given the molecule `COc1ccc(NC(=O)/C(=C/c2ccccc2)C(C)=O)cc1` , write its reported TGI.
## Output 28.7

## Input Given the molecule `CCCCCCCCOC(=O)CC[C@@H](C)[C@H]1CC[C@H]2[C@@H]3[C@H](OC(=O)CCN)C[C@@H]4C[C@H](OC(=O)CCN)CC[C@]4(C)[C@H]3C[C@H](OC(=O)CCN)[C@]12C` , write its reported TGI.
## Output 8.77

## Input Given the molecule `Nc1nonc1-c1nc2cnccc2n1C1CC1` , write its reported TGI.
## Output 10.1

## Input Given the molecule CC[C@@]1(O)C(=O)OCc2c1cc1n(c2=O)Cc2c-1nc1ccccc1c2/C=N\NC(=O)C1CCCN1 (some centres not stated) , write its reported TGI.
## Output 0.318

## Input Given the molecule `CCNc1cc(-c2cccc(OC(F)(F)F)c2)nc2ccc(N3CCCC3)cc12` , write its reported TGI.
## Output 3.36

---

# Test system: HL-60(TB) leukemia
# Assay summary: NCI tumour cell line growth inhibition, 48 h
This listing pairs compounds with measured TGI.

## Input Given the compound `COc1ccc2nc(-c3ccccc3)cc(OCC(=O)O)c2c1` , write its reported TGI.
## Output > 100 µM

## Input Given the compound `CCCC(CCC(N)=O)(CCC(N)=O)[N+](=O)[O-]` , write its reported TGI.
## Output > 100 µM

---

# Tested on: NCI-H460 lung
# Assay summary: NCI tumour cell line growth inhibition, 48 h
Measurement kind: GI50

Observe how each entry below is paired with its result.
- Compound: "COc1ccc(/C=C/C(=O)/C=C/c2cc3ccccc3[nH]c2=O)cc1"
  System name: "NCI-H460 lung"
  Measurement kind: "GI50"
  Experimental value: "4.98 µM"
- Compound: "CC(C)c1c(-c2ccccc2)nc2c(C#N)c[nH]n2c1=O"
  System name: "NCI-H460 lung"
  Measurement kind: "GI50"
  Experimental value: "32.6 µM"
- Compound: "O=C(Nc1cc(C(F)(F)F)ccc1Cl)c1ccc(NC2=C(Cl)C(=O)N(Cc3ccccc3)C2=O)cc1"
  System name: "NCI-H460 lung"
  Measurement kind: "GI50"
  Experimental value: "34.3 µM"
- Compound: "CCC(O)c1ccc(Br)cc1NC(=O)c1cccc(Cl)c1 (stereo unspecified)"
  System name: "NCI-H460 lung"
  Measurement kind: "GI50"
  Experimental value: "21.9 µM"
- Compound: "O=c1c2cc(F)ccc2sc2c(N3CCNCC3)nc3ccc(F)cc3c12"
  System name: "NCI-H460 lung"
  Measurement kind: "GI50"
  Experimental value: "1.59 µM"

Now for a further compound.
## Input Given the compound `COc1ccc(NC(=O)CSC2=C(Nc3cccc(Br)c3)C(=O)N(Cc3ccccc3)C2=O)cc1Cl` , write its reported GI50.
## Output 29.9 µM

---

# System: SF-268 CNS
# Assay summary: NCI tumour cell line growth inhibition, 48 h; in the data active means GI50 below about 0.43 µM; inactive means the rest
Classes to choose from: active, inactive

## Input Fill in: this test's call for `COc1cc2ncn(-c3cc(OCc4ccccc4C(F)(F)F)c(C(=O)N(C)C)s3)c2cc1OC` is ___
## Output inactive

## Input Fill in: this test's call for `COc1ccc2c(=O)cc(-c3ccccc3)[nH]c2c1` is ___
## Output inactive

## Input Fill in: this test's call for `CC[C@H](Nc1ncnc2nc[nH]c12)c1nc2cccc(F)c2c(=O)n1-c1ccccc1` is ___
## Output inactive

## Input Fill in: this test's call for C=C(CC(NC(=O)c1ccc(C(CC)Cc2cnc3nc(N)nc(N)c3n2)cc1)C(=O)O)C(=O)O (centres undefined) is ___
## Output active

---

# System: HOP-92 NSCLC
# Assay summary: NCI tumour cell line growth inhibition, 48 h
Measurement kind: TGI

- Compound: "C[C@@H]1C[C@H](C)CN(S(=O)(=O)c2ccc3c(NO)c4ccc(S(=O)(=O)N5C[C@H](C)C[C@H](C)C5)cc4c(N=O)c3c2)C1"
  TGI: "0.522 µM"
- Compound: "O=C(/C=C/C12c3ccccc3C(c3ccccc31)C1C(=O)NC(=O)C12)c1ccc(Cl)cc1Cl (configuration not stated)"
  TGI: "3.3 µM"
- Compound: "COc1ccc(NC(=O)CC2SC(=Nc3ccccc3C)NC2=O)c([N+](=O)[O-])c1 (configuration not stated)"
  TGI: "> 100 µM"
- Compound: "CCC(O)c1ccc(Br)cc1NC(=O)c1cccc(Cl)c1 (configuration not stated)"
  TGI: "65.6 µM"
- Compound: "O=C1CC(c2ccccc2)C2(C(=O)NC(=S)NC2=O)C(c2ccccc2)C1 (configuration not stated)"
  TGI: "> 75 µM"
- Compound: "CCCC(CCC(N)=O)(CCC(N)=O)[N+](=O)[O-]"
  TGI: "> 100 µM"

Now for a further compound.
## Input Given the compound O=C(OC1C2OC(=O)c3cc(O)c(O)c(O)c3Oc3cc4c(c(O)c3O)-c3c(cc(O)c(O)c3O)C(=O)OCC3OC(O)C(OC(=O)c5cc(O)c(O)c(O)c5Oc5cc6c(c(O)c5O)-c5c(cc(O)c(O)c5O)C(=O)OC1C(COC6=O)OC2O)C(OC(=O)c1cc(O)c(O)c(O)c1)C3OC4=O)c1cc(O)c(O)c(O)c1 (configuration not stated) , write its reported TGI.
## Output 58.5 µM
